# MEASURED_TARGET: T1, human SLC34A2 (human, UniProt O95436 1-690)
# T1 construct: whole, on cells; also called human solute carrier 34 A2; NaPi2b
# T1 sequence (looked up): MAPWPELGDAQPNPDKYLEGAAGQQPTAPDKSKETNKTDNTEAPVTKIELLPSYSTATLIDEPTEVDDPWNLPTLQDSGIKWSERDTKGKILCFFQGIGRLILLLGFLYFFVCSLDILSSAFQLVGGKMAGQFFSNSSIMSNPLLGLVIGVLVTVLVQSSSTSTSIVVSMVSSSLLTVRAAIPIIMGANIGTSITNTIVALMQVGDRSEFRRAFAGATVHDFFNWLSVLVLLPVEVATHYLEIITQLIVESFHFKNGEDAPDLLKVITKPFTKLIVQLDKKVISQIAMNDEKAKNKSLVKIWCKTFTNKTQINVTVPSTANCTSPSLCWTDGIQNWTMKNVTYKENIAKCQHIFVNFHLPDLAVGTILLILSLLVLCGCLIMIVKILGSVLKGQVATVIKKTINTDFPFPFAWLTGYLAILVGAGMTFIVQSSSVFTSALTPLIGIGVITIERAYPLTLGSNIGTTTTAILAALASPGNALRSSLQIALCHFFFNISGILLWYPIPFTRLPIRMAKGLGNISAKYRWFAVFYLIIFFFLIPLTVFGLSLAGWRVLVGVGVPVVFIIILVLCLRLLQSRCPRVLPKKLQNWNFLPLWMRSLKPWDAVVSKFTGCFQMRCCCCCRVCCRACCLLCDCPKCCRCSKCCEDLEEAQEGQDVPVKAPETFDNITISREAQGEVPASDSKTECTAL
# EXPERIMENT_NOTES: FACS, OVCAR3 cells
pEC50: −log10 of the molar value.
Entries and their pEC50 values follow.
MEASUREMENT_KIND: pEC50

BINDER	RESULT_NUMBER
xi30H9B8F9 hIgG1 (antibody, V domains shown, chimeric, hIgG1) VH: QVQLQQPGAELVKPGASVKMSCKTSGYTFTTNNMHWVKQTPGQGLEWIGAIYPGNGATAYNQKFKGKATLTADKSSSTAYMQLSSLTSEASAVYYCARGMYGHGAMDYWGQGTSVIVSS VL: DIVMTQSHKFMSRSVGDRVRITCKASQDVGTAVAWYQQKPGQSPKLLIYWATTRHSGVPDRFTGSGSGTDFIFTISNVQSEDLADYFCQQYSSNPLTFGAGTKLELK	8.96
30H9B8F9 VH_P1/VL hIgG1 (antibody, V domains shown, PTM-derisked chimeric, hIgG1; that P1 is the N=>S version follows from the humanized .p1 chains; also called 30H9B8F9.p1 hIgG1) VH: QVQLQQPGAELVKPGASVKMSCKTSGYTFTTNNMHWVKQTPGQGLEWIGAIYPGSGATAYNQKFKGKATLTADKSSSTAYMQLSSLTSEASAVYYCARGMYGHGAMDYWGQGTSVIVSS VL: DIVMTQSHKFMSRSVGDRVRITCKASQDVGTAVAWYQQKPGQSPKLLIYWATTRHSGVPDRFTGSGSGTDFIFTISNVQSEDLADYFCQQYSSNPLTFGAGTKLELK	8.82

Hello, the source for this data is patent US20240301052A1, in case you need it.
